molecular target: T1, human β NGF (human, UniProt P01138 122-241, biotinylated in the TrkA inhibition ELISA (sites not given)); assay: TrkA inhibition ELISA; biotin-hNGF bound to rat TrkA/Fc; supernatant 5-fold
T1 construct: Bought (R&D Systems 256-GF/CF); also called Human NGF; biotinylated human NGF
T1 sequence (P01138 122-241 limits assumed): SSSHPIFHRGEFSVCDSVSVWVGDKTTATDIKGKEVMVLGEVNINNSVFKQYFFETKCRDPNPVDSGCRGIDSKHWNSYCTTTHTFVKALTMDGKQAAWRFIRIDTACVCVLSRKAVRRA

BINDER: 21D4 hybridoma supernatant (antibody, mouse IgG1, V domains shown, Tested as supernatant of the hybridoma before subcloning; mouse IgG1 kappa; also called ML129-21D4.4A11) VH: EVQLQQSGAELVKPGASVKLSCTASGFNIKDTYIYWVKQRPEQGLEWIGRIDPANGNTIYASKFQGKASITADTSSNTAYMQLSSLTSGDTAVYYCAGYGYYAYWGQGTTLTVSS VL: DVVLTQTPLSLPVNIGDQASISCKSTKSLLNGDGFTYLDWYLQKPGQSPQLLIYLVSNRFSGVPDRFSGSGSGTDFTLKISRVEAEDLGVYYCFESNYLFTFGSGTKLEMKR
absorbance at 450 nm, OD450: 0.242
--
BINDER: 3F7 hybridoma supernatant (antibody, mouse IgG1, V domains shown, Tested as supernatant of the hybridoma before subcloning; mouse IgG1 kappa; also called ML130-3F7.4A8) VH: QVQLKESGPGLVAPSQSLSITCTVSGFSLTGYNINWVRQPPGKGLEWLGMIWGYGDTDYNSALKSRLSISKDNSKSQVFLKMNSLQTDDTARYYCARDHYGGNDWYFDVWGTGTTVTVSS VL: DIQMTQTTSSLSASLGDRVTITCRASQDITNYLNWYQQKPDGTVKLLIYYTSRLHSGVPSRFSGSGSGTDYSLTISNLDQEDIATYFCQQGKTLPRTFGGGTKLEIKR
absorbance at 450 nm, OD450: 0.083
